// provenance: patent US20250059285A1

- System: T1, human Gal10-His (human, UniProt Q05315 2-142, limits assumed)
- T1 construct: also called hGal10-His; human Gal10-His tagged; not shown: His tag
- T1 sequence: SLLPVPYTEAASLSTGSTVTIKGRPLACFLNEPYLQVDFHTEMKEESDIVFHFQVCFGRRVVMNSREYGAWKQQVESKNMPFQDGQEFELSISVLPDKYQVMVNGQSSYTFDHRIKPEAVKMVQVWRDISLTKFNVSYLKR
- Experiment Description: SPR slope against calibrators on captured Gal10-His; sample 2 weeks at 37 C
Measure Name: % Relative Activity (RA) on Biacore (%)
Form entry: value (%) — number only.

Binder: g24F02 (human Fab) (Fab, V domains shown, Human Fab backbone (human CH1, human lambda CL); also called germlined 24F02) VH: EVQLLESGGGLVQPGGSLRLSCAASGFTFSSYAMSWVRQAPGKGLEWVSAINNGGGSTSYADSVKGRFTISRDNSKNTLYLQMNSLRAEDTAVYYCAKGLRVGVLGFDYWGQGTLVTVSS VL: SYELTQPLSVSVALGQTARITCDGNNIGSKSAQWYQQKPGQAPVLVIYADEYRPEGIPERFSGSNSGNTATLTISRAQAGDEADYYCQVWDGSAAVFGGGTQLTVL
Measure Name: % Relative Activity (RA) on Biacore
Numeric Value: 175
//
Binder: g24F02_N53A (human Fab) (Fab, V domains shown, Human Fab backbone: human CH1 and human lambda constant domain (pUPEX vectors); also called g24F02_N53A_2W) VH: EVQLLESGGGLVQPGGSLRLSCAASGFTFSSYAMSWVRQAPGKGLEWVSAINAGGGSTSYADSVKGRFTISRDNSKNTLYLQMNSLRAEDTAVYYCAKGLRVGVLGFDYWGQGTLVTVSS VL: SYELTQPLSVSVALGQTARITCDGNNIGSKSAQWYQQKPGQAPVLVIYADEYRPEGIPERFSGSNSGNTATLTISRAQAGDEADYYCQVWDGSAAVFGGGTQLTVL
Measure Name: % Relative Activity (RA) on Biacore
Numeric Value: 99
//
Binder: g20H09 (Fab) (Fab, V domains shown, same VH/VL) VH: EVQLLESGGGLVQPGGSLRLSCAASGFTFRSYDMSWVRQAPGKGLEWVSAIKWHRITYYADSVKGRFTISRDNSKNTLYLQMNSLRAEDTAVYYCATTHGIGTLGFGSWGQGTLVTVSS VL: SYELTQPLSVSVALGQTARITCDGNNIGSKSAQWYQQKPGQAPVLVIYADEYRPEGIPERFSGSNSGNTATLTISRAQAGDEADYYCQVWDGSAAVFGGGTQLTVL
Measure Name: % Relative Activity (RA) on Biacore
Numeric Value: 86

Continue with the binder presented below.
# input Provide % Relative Activity (RA) on Biacore value for the following binder: g23H09 (Fab) (Fab, V domains shown, same VH/VL) VH: EVQLLESGGGLVQPGGSLRLSCAASGFTFRSYDMSWVRQAPGKGLEWVSAIAQFQHWTYYADSVKGRFTISRDNSKNTLYLQMNSLRAEDTAVYYCATTHGIGTLGFGSWGQGTLVTVSS VL: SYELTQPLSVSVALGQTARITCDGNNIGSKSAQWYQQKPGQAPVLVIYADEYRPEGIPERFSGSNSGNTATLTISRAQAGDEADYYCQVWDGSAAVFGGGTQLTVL
# output 78
